Tested on: HS 578T breast
Assay: NCI-60 one-dose screen, 48 h (100 = growth as untreated, 0 = no growth, -100 = all killed)
Details: 10 µM unless noted
This is part of a sample that, as a whole, favours compounds with a hit. Of some 83,000 tested, about 20% had one in any assay.
readout type: growth (%)
Numbers only, in %.

Check out these entries, answers already filled in.
CN(C)CCC(O)(Cc1ccccc1)c1ccccc1 (stereo unspecified) | 99.8
Cc1nc(Nc2ccccn2)sc1C(=O)/C=C/c1ccc(Br)cc1 | 77.9
COc1ccc(/C=C2\COc3ccc(O)cc3C2=O)c(OC)c1 | 66
N=C(N)c1ccc(-c2ccc(-c3ccc(Cl)cc3Cl)o2)cc1 | 29.7
CN(C)CCOC(=O)Nc1ccc(Cl)cc1 | 94.7
CCn1c(Sc2nnc(NC(=O)CSC(=S)N3CCCCC3)s2)nc2c1c(=O)n(C)c(=O)n2C | 91.4
C=C1c2c(C)nn(-c3ccc(S(N)(=O)=O)cc3)c2N(C)C23CC1C1(C)c4c(C)nn(-c5ccc(S(N)(=O)=O)cc5)c4N(C)C(C)(CC12)C3 (stereo unspecified) | 54.3
Clc1ccc(-c2nnc(-c3ccco3)o2)cc1 | 107

Take each entry in turn and give its growth.
1. NC(N)=N/N=C/c1ccc(Br)cc1
2. O=C1CSC(c2ccccc2O)N1c1nnc(Cn2cnnc2)o1 (stereo unspecified)
3. COc1ccc(-c2cncnc2N)cc1OC

Response:
67.5
88.1
107

Reference source for all entries: PubChem BioAssay (NCI)
